System: KRas-mediated Phosphorylation of ERK in HCT116 cells
RUN DESCRIPTION: Cisbio HTRF pERK assay, HCT116 cells
Assay type: cell-based
SETUP CONDITIONS: Homo sapiens, HCT-116, HCT116 cells, single point at 100 nM
The class of a record is decided solely by its measured inhibition at 0.1 µM; consult class 0: < 10%; class 1: ≥ 10% and < 50%; class 2: ≥ 50%

>  <COMPOUND>
CCc1c(F)ccc2cc(O)cc(-c3c(F)cc4c(N5CCCn6nc(C(=O)NC(C)C)cc6C5)nc(OC[C@@]56CCCN5C[C@H](F)C6)nc4c3F)c12

>  <CLASSIFICATION>
class 1

$$$$

Would you mind sorting CCc1c(F)ccc2cc(O)cc(-c3c(F)cc4c(N5CCCC6(CNS(=O)(=O)N6)C5)nc(OCC5(CN(C)C)CC5)nc4c3F)c12 (stereo not drawn) into the appropriate category?
class 0

###

SYSTEM NAME: KRas^G12S (Homo sapiens, UniProt P01116, G12S)
Construct: Biotinylated KRas (corresponding to amino acids 1-169, produced at Accelegan Inc.); biotin (biotinylated); purchased Accelegan Inc
Sequence (P01116 1-169 isoform P01116-2 G12S): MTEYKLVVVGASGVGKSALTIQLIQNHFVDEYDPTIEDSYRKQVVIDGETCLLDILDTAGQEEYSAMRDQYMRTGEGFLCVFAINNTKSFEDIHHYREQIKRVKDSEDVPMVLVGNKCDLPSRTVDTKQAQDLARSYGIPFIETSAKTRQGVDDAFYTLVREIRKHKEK
RUN DESCRIPTION: KRas TR-FRET tracer displacement binding assay, G12S
SETUP CONDITIONS: 60-minute incubation
PROPERTY MEASURED: log10 IC50 (log10 of the value in nM)
Values reflect log10 of reported IC50 (nM).

>  <COMPOUND>
Cc1c(F)c(N)nc(-c2c(Cl)cc3c(NC(C)c4cccnc4N)nc(OC[C@@]45CCCN4C[C@H](F)C5)nc3c2F)c1C(F)(F)F (single isomer, unassigned; isomer 2) [Example 173]

>  <log10 IC50>
2.52

$$$$
>  <COMPOUND>
N#Cc1c(N)sc2c(F)ccc(-c3c(Cl)cc4c(NCCS(N)(=O)=O)nc(OC[C@@]56CCCN5C[C@H](F)C6)nc4c3F)c12 [Example 201]

>  <log10 IC50>
0.30

$$$$
>  <COMPOUND>
CC(Oc1nc(N(C)C)c2cc(F)c(-c3ccc(F)c4sc(N)c(C#N)c34)c(F)c2n1)C12CCCN1CCC2 (single isomer, unassigned; isomer 2) [Example 178]

>  <log10 IC50>
1.45

$$$$
>  <COMPOUND>
CC1CN(C)CCCN1c1nc(N(C)C)c2cc(Cl)c(-c3ccc(F)c4sc(N)c(C#N)c34)c(F)c2n1 (stereo not drawn) [Example 217]

>  <log10 IC50>
2.44

$$$$

Specify log10 IC50 for CC(Oc1nc(N(C)C)c2cc(F)c(-c3ccc(F)c4sc(N)c(C#N)c34)c(F)c2n1)C12CCCN1CCC2 (single isomer, unassigned; isomer 1) [Example 177] and stop.
1.62

Find the measured log10 IC50 of C[C@@]1(O)COCCN(c2nc(OC[C@@]34CCCN3C[C@H](F)C4)nc3c(F)c(-c4ccc(F)c5sc(N)c(C#N)c45)c(F)cc23)C1 [Example 216] and report it.
0.70

// Input: C[C@@]1(O)CCCN(c2nc(OC[C@@]34CCCN3C[C@H](F)C4)nc3c(F)c(-c4ccc(F)c5sc(N)c(C#N)c45)c(F)cc23)C1 [Example 198] . Output its log10 IC50 only.
1.04

Read off the recorded log10 IC50 for N#Cc1c(N)sc2c(F)ccc(-c3c(Cl)cc4c(N5CCC5CO)nc(OC[C@@]56CCCN5C[C@H](F)C6)nc4c3F)c12 (stereo partly drawn) [Example 209]
0.30
